Target: KEAP1 C151 (Homo sapiens, UniProt Q14145)
Construct: treating 500 μg of cell lysate generated from MDA-MB-468 breast cancer cells with DMSO or compound; endogenous in cells
Sequence (Q14145 whole entry): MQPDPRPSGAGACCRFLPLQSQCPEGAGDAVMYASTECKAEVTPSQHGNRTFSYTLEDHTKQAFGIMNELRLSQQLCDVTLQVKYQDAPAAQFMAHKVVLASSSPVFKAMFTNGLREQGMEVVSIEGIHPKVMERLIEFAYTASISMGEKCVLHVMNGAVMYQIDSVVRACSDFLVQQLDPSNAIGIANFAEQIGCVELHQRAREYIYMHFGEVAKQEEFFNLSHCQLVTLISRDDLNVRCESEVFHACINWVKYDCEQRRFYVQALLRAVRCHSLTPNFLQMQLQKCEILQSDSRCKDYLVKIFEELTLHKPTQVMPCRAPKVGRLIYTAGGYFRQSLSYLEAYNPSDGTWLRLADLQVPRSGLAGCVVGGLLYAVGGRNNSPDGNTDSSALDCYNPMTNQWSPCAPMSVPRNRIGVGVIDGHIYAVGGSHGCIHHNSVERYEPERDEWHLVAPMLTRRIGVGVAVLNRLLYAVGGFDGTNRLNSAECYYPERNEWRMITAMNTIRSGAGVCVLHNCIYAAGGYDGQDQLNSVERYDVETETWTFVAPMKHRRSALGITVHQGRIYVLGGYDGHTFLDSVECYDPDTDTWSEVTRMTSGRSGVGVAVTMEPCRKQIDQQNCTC
Test: Nrf2 TMT measurement: in vitro TE50 for KEAP1 C151 (IA-DTB competition, targeted TMT mass spectrometry) in MDA-MB-468 cell lysate
Conditions: in vitro target engagement of KEAP1 C151, targeted TMT, read-out: KEAP1_C151 TE50
pIC50: −log10 of the molar value.
READOUT KIND: pIC50

Some compounds with recorded pIC50:
C=CC(=O)N1CCOCC1c1cc(Cl)cc(-c2cc(C(N)=O)ncn2)c1 (single isomer, unassigned) ... 7.74
C=CC(=O)N1CCOC[C@H]1c1cc(Cl)cc(-c2nc(C)cc(N)n2)c1 (single isomer, unassigned) ... 7.60

1 = C=CC(=O)N1CCOC[C@H]1c1cc(Cl)cc(C2CNC(=O)NC2)c1 (single isomer, unassigned)
2 = C=CC(=O)N1CCOC[C@H]1c1cc(Cl)cc(-c2cnc(N)cn2)c1 (single isomer, unassigned)
3 = C=CC(=O)N1[C@H](C)COC[C@H]1c1cc(Cl)nc(-c2ccc(F)c(C(N)=O)c2)c1 (single isomer, unassigned)
4 = C=CC(=O)N1CCOC[C@H]1c1cc(Cl)cc(-c2nc(N)[nH]c(=O)n2)c1 (single isomer, unassigned)
Data request: Write the entries in order, lowest recorded pIC50 first. List the labels, following the order given in the request.
Data returned: 1, 4, 3, 2
(1: 6.48, 4: 6.82, 3: 7.13, 2: 7.77)

Measured values drawn from patent US20260207621A1 for this set.
